molecular target: ERβ (Homo sapiens, UniProt Q92731); experiment: Phage ELISA / fingerprint on ER immobilized on biotinylated ERE (Examples 2.3-2.5); assay type: binding; set-up: purchased PanVera Corporation, Madison, WI; key: semiquantitative scale of 0 to 7+; 1+: semiquantitative scale of 0 to 7+; 2+: semiquantitative scale of 0 to 7+; 3+: semiquantitative scale of 0 to 7+; 4+: semiquantitative scale of 0 to 7+; 5+: semiquantitative scale of 0 to 7+; 6+: semiquantitative scale of 0 to 7+; semiquantitative scale of 0 to 7+; details: ERβ and tamoxifen (4-OH tamoxifen, 1 µM)
Sequence (Q92731 whole entry): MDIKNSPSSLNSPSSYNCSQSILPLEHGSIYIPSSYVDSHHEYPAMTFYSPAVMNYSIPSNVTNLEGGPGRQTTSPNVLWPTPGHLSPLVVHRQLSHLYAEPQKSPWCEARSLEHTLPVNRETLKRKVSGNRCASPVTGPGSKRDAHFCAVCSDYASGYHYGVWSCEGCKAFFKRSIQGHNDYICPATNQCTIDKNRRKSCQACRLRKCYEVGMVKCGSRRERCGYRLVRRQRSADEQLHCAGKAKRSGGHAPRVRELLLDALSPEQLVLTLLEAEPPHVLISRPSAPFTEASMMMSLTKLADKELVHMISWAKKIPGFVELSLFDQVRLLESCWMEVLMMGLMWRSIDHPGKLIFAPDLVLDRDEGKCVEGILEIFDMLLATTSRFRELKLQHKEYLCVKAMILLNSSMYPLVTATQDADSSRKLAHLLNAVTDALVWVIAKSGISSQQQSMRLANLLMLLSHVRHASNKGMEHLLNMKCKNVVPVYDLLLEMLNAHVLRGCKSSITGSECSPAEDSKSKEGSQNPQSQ
Measured binding activity, ERβ and tamoxifen, listed per entry for reference.

Given the entry SSRLVPHSFWLDGLMHGSR [Peptide 21t-β] , what binding activity, ERβ and tamoxifen was observed with ERβ (Homo sapiens, UniProt Q92731)?
7+

Given the entry SSISTYHMGEWFYAMLSSR [Peptide 22t-β] , what binding activity, ERβ and tamoxifen was observed with ERβ (Homo sapiens, UniProt Q92731)?
7+

Given the entry SSTTWRCPEWYCGSR [Peptide 30E-β] , what binding activity, ERβ and tamoxifen was observed with ERβ (Homo sapiens, UniProt Q92731)?
3+

Given the entry SRLNGVFCHDSSDLWVCSR [Peptide 18t-β] , what binding activity, ERβ and tamoxifen was observed with ERβ (Homo sapiens, UniProt Q92731)?
7+

Given the entry SSWNSREFFLSQLSR [Peptide 5t-β] , what binding activity, ERβ and tamoxifen was observed with ERβ (Homo sapiens, UniProt Q92731)?
7+

Given the entry SSSLGPWRLSELESR [Peptide 16b-β] , what binding activity, ERβ and tamoxifen was observed with ERβ (Homo sapiens, UniProt Q92731)?
5+

Given the entry SSTTMFDFFYERLSR [Peptide 6t-β] , what binding activity, ERβ and tamoxifen was observed with ERβ (Homo sapiens, UniProt Q92731)?
7+

---

Biological target: ERα (Homo sapiens)
Sequence (P03372 1-595): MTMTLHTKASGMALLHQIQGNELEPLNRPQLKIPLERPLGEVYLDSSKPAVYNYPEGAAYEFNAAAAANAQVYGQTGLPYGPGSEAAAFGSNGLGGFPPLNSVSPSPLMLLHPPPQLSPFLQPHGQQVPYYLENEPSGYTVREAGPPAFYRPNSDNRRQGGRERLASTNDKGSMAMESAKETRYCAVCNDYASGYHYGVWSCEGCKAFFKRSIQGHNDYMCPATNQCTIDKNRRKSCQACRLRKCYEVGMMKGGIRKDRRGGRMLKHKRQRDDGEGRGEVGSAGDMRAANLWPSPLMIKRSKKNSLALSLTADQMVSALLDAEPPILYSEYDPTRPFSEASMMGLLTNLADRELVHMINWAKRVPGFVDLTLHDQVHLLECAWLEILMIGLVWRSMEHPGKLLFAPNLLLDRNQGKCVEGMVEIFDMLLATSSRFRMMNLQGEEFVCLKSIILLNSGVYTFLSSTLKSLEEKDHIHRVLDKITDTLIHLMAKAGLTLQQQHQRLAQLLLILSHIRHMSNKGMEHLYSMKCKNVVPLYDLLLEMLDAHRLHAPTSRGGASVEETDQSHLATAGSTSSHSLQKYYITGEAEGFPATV
Experiment: Phage ELISA / fingerprint on ER immobilized on biotinylated ERE (Examples 2.3-2.5)
Assay type: binding
Design: purchased PanVera Corporation, Madison, WI; key: semiquantitative scale of 0 to 7+; 1+: semiquantitative scale of 0 to 7+; 2+: semiquantitative scale of 0 to 7+; 3+: semiquantitative scale of 0 to 7+; 4+: semiquantitative scale of 0 to 7+; 5+: semiquantitative scale of 0 to 7+; 6+: semiquantitative scale of 0 to 7+; semiquantitative scale of 0 to 7+
Settings: ERα and estradiol (1 µM)
Measured binding activity, ERα and estradiol, listed per entry for reference.

>>> observed("SSDLHRDCLGVWCLSR [Peptide 17t-β]")
"2+"

In the following, a different sequence is considered.
# binding activity, ERα and estradiol lookup, item SSGPFYVGGMLWPADCLSR [Peptide 10t-β]
3+
